System: Heat shock protein HSP 90-alpha (Homo sapiens, UniProt P07900) | Read-out: IC50 | Origin: multiple publications

Note to self: IC50 recorded for COc1c(C)cnc(CN2c3nc(N)ncc3NC(=O)[C@H]2CC(C)C)c1C was 1940 nM

Note to self: IC50 recorded for CCNC(=O)c1ccc(N2[C@@H]3CC[C@H]2C[C@@H](NC(=O)c2cccc(OC)c2C)C3)nc1 was 500 to 999 nM

Note to self: IC50 recorded for CCC(Nc1cc(C(=O)N[C@H]2C[C@H]3CC[C@@H](C2)N3c2ccc(C(=O)C3CC3)cn2)c(C)cc1C(N)=O)C(C)C (stereo partly shown) was < 500 nM

Note to self: IC50 recorded for CCC(CC)Nc1cc(C(=O)N[C@H]2C[C@H]3CC[C@@H](C2)N3c2ccc(C(C)=O)cn2)c(C)cc1C(N)=O was < 500 nM

Note to self: IC50 recorded for CC(C)c1cc(-c2onc(C(=O)NCCCCCCCC(=O)NO)c2-c2ccc(CN3CCOCC3)cc2)c(O)cc1O was ≤ 100 nM

Note to self: IC50 recorded for CCc1cc(C(=O)N[C@H]2C[C@H]3CC[C@@H](C2)N3c2ccc(C(=O)C3CC3)cn2)c(C)cc1C(N)=O was < 500 nM

Note to self: IC50 recorded for CCC(C)CN(CCO)C(=O)c1cccc(-c2cc(-c3nnnn3CCCOC)c(O)cc2O)c1 (stereo not shown) was > 50000 nM

Note to self: IC50 recorded for NC(=O)c1ccc(C(=O)N[C@H]2C[C@H]3CC[C@@H](C2)N3c2ccc(C(=O)CCC3CCCCC3)cn2)cc1NCC1CC1 was 1000 to 2000 nM

Note to self: IC50 recorded for COc1c(C)cnc(CN2c3nc(N)ncc3N(CCc3ccccc3)C(=O)[C@H]2C)c1C was 128 nM

Note to self: IC50 recorded for COCCCn1nnnc1-c1cc(-c2cccc(C(=O)N(C)CCN(C)C)c2)c(O)cc1O was > 50000 nM

Note to self: IC50 recorded for COc1ccc(C(C)C)cc1-c1cc(-c2nnnn2-c2ccccc2)c(O)cc1O was < 1000 nM

Note to self: IC50 recorded for COc1cccc(C(=O)N[C@H]2C[C@H]3CC[C@@H](C2)N3c2ccc(C(=O)NCc3ccccc3F)cn2)c1C was < 500 nM

Note to self: IC50 recorded for COc1cccc(C(=O)NC2CC3CCC(C2)N3c2ccc(C(=O)NC[C@H](C)O)cn2)c1C (stereo partly shown) was 2000 to 10000 nM

Note to self: IC50 recorded for COc1cccc(C(=O)NC2CC3CCC(C2)N3c2ccc(C(=O)NC(C)c3ccc(N4CCNCC4)nc3)cn2)c1C (stereo not shown) was < 500 nM

Note to self: IC50 recorded for NC(=O)c1ccc(C(=O)N[C@H]2C[C@H]3CC[C@@H](C2)N3c2ccc(C(=O)CN3CCCCC3)cn2)cc1NCC1CC1 was 2000 to 10000 nM

Note to self: IC50 recorded for Cc1cc(C(N)=O)c(NC(C)C)cc1C(=O)N[C@H]1C[C@H]2CC[C@@H](C1)N2c1ccc(C(=O)C2CC2)cn1 was < 500 nM

Note to self: IC50 recorded for CN(C)CCC(=O)c1ccc(N2[C@@H]3CC[C@H]2C[C@@H](NC(=O)c2ccc(C(N)=O)c(NCC4CC4)c2)C3)nc1 was < 500 nM

Note to self: IC50 recorded for COc1cccc(C(=O)NC2CC3CCC(C2)N3c2ccc(C(=O)N[C@@H]3CCNC3)cn2)c1C (stereo partly shown) was 500 to 999 nM

Note to self: IC50 recorded for COc1cccc(C(=O)N[C@H]2C[C@H]3CC[C@@H](C2)N3c2ccc(C(=O)NCc3ccc(Br)cc3)cn2)c1C was 500 to 999 nM

Note to self: IC50 recorded for COc1ccc([C@H](C)NC(=O)c2ccc(N3C4CCC3CC(NC(=O)c3cccc(OC)c3C)C4)nc2)c(F)c1 (stereo partly shown) was < 500 nM

Note to self: IC50 recorded for CCNC(=O)c1noc(-c2cc(C(C)C)c(O)cc2O)c1NC(=O)c1ccc(OC)cc1 was 100 to 1000 nM

Note to self: IC50 recorded for COc1ccc(CNC(=O)c2ccc(N3[C@@H]4CC[C@H]3C[C@@H](NC(=O)c3cccc(OC)c3C)C4)nc2)c(Cl)c1 was < 500 nM

Note to self: IC50 recorded for CC(=O)c1ccc(N2[C@@H]3CC[C@H]2C[C@@H](NC(=O)c2ccc(C(N)=O)c(NN4CCCCC4)c2)C3)nc1 was < 500 nM

Note to self: IC50 recorded for COc1ccc(-c2c(C(=O)NCCCCCCCC(=O)NO)noc2-c2cc(Cl)c(O)cc2O)cc1 was ≤ 100 nM

Note to self: IC50 recorded for CCc1cc(C(N)=O)c(N[C@H](C)CC)cc1C(=O)NC1CC2CCC(C1)N2c1ccc(C(=O)C2CC2)cn1 (stereo partly shown) was < 500 nM

Note to self: IC50 recorded for CC(=O)c1ccc(N2[C@@H]3CC[C@H]2C[C@@H](NC(=O)c2ccc(C(N)=O)c(NC4CCOCC4)c2)C3)nc1 was < 500 nM

Note to self: IC50 recorded for COc1ccc([C@H](C)NC(=O)c2ccc(N3C4CCC3CC(NC(=O)c3cccc(OC)c3C)C4)nc2)cc1 (stereo partly shown) was < 500 nM

Note to self: IC50 recorded for CCNC(=O)c1noc(-c2cc(C(C)C)c(O)cc2O)c1NC(=O)c1sccc1C was < 100 nM

Note to self: IC50 recorded for COc1c(C)cnc(CN2c3nc(N)ncc3N(CCc3cccnc3)C(=O)[C@H]2C)c1C was 542 nM

Note to self: IC50 recorded for COc1cccc(C(=O)N[C@H]2C[C@H]3CC[C@@H](C2)N3c2ccc(C(=O)NCc3ccc(C(F)(F)F)cc3)cn2)c1C was 1000 to 2000 nM

Note to self: IC50 recorded for COc1cccc([C@H](C)NC(=O)c2ccc(N3C4CCC3CC(NC(=O)c3cccc(OC)c3C)C4)nc2)c1 (stereo partly shown) was < 500 nM

====

System: Heat shock protein HSP 90-alpha (Homo sapiens) | Read-out: IC50 | Origin: multiple publications

Summary line: COc1ccc(Nc2cc(C(=O)N[C@H]3C[C@H]4CC[C@@H](C3)N4c3ccc(C(C)=O)cn3)ccc2C(N)=O)cc1OCCN1CCOCC1 , Heat shock protein HSP 90-alpha (Homo sapiens), reported IC50 = < 500 nM

Summary line: CCNC(=O)c1noc(-c2cc(Cl)c(O)cc2O)c1-c1ccc(OCCCC(=O)NO)cc1 , Heat shock protein HSP 90-alpha (Homo sapiens), reported IC50 = ≤ 100 nM

Summary line: COCCCn1nnnc1-c1cc(-c2cccc(C(=O)NC(C)CN(C)C)c2)c(O)cc1O (stereo not shown) , Heat shock protein HSP 90-alpha (Homo sapiens), reported IC50 = > 50000 nM

Summary line: CCOCCC(=O)c1ccc(N2[C@@H]3CC[C@H]2C[C@@H](NC(=O)c2ccc(C(N)=O)c(NCC4CC4)c2)C3)nc1 , Heat shock protein HSP 90-alpha (Homo sapiens), reported IC50 = < 500 nM

Summary line: CC(C)[C@H](C)Nc1cc(C(=O)NC2CC3CCC(C2)N3c2ccc(C(=O)C3CC3)cn2)c(Br)cc1C(N)=O (stereo partly shown) , Heat shock protein HSP 90-alpha (Homo sapiens), reported IC50 = < 500 nM

Summary line: CC(=O)c1ccc(N2[C@@H]3CC[C@H]2C[C@@H](NC(=O)c2ccc(C(N)=O)c(NCC4CCCNC4)c2)C3)nc1 (stereo partly shown) , Heat shock protein HSP 90-alpha (Homo sapiens), reported IC50 = < 500 nM

Summary line: NC(=O)c1ccc(C(=O)N[C@H]2C[C@H]3CC[C@@H](C2)N3c2ccc(C(=O)CCc3ccccc3)cn2)cc1NCC1CC1 , Heat shock protein HSP 90-alpha (Homo sapiens), reported IC50 = 2000 to 10000 nM

====

pIC50: −log10 of the molar value.
System: UniProt:P07900 | Read-out: pIC50 | Origin: multiple publications

Note to self: pIC50 recorded for CCNC(=O)c1noc(-c2cc(C(C)C)c(O)cc2O)c1NC(=O)C1CCC(OC)CC1 (stereo not shown) was > 7.00

Note to self: pIC50 recorded for CC(=O)Nc1cc(C(=O)N[C@H]2C[C@H]3CC[C@@H](C2)N3c2ccc(C(N)=O)cn2)ccc1C(N)=O was 5.70 to 6.00

Note to self: pIC50 recorded for COc1cccc(C(=O)N[C@H]2C[C@H]3CC[C@@H](C2)N3c2ccc(C(=O)Nc3cc(C)cc(C)c3)cn2)c1C was 5.00 to 5.70

Note to self: pIC50 recorded for COCCOc1cc(C(=O)N[C@H]2C[C@H]3CC[C@@H](C2)N3c2ccc(C(=O)C3CC3)cn2)c(C)cc1C(N)=O was 6.00 to 6.30

Note to self: pIC50 recorded for COc1cccc(C(=O)N[C@H]2C[C@H]3CC[C@@H](C2)N3c2ccc(C(=O)NCc3ccc(Cl)cc3)cn2)c1C was 6.00 to 6.30

Note to self: pIC50 recorded for Cc1cc(C(N)=O)c(N)cc1C(=O)N[C@H]1C[C@H]2CC[C@@H](C1)N2c1ccc(C(=O)C2CC2)cn1 was > 6.30

Note to self: pIC50 recorded for COc1ccc(-c2c(C(=O)NCC3CCN(c4ncc(C(=O)NO)cn4)CC3)noc2-c2cc(Cl)c(O)cc2O)cc1 was 6.00 to 7.00

Note to self: pIC50 recorded for CC(C)[C@@H](C)Nc1cc(C(=O)NC2CC3CCC(C2)N3c2ccc(C(=O)C3CC3)cn2)c(Br)cc1C(N)=O (stereo partly shown) was > 6.30

Note to self: pIC50 recorded for COc1cccc(C(=O)N[C@H]2C[C@H]3CC[C@@H](C2)N3c2ccc(C(N)=O)cn2)c1F was 5.00 to 5.70

Note to self: pIC50 recorded for COc1cccc(C(=O)N[C@H]2C[C@H]3CC[C@@H](C2)N3c2ccc(C(=O)NC(C)C)cn2)c1C was 5.70 to 6.00

Note to self: pIC50 recorded for CCCCn1nnnc1-c1cc(-c2cccc(C(=O)NC(C)COC)c2)c(O)cc1O (stereo not shown) was < 4.30

Note to self: pIC50 recorded for CC(=O)c1ccc(N2[C@@H]3CC[C@H]2C[C@@H](NC(=O)c2ccc(C(N)=O)c(NCC4CCCO4)c2)C3)nc1 (stereo partly shown) was > 6.30

Note to self: pIC50 recorded for COc1cccc(C(=O)NC2CC3CCC(C2)N3c2ccc(C(=O)N[C@@H](C)c3ccc(Cl)cc3)cn2)c1C (stereo partly shown) was > 6.30

Note to self: pIC50 recorded for Cc1cc(C(N)=O)c(NC(C)C2(C)CC2)cc1C(=O)N[C@H]1C[C@H]2CC[C@@H](C1)N2c1ccc(C(=O)C2CC2)cn1 (stereo partly shown) was > 6.30

Note to self: pIC50 recorded for CCCCn1nnnc1-c1cc(-c2cccc(C(=O)N(CCO)CC(C)CC)c2)c(O)cc1O (stereo not shown) was < 4.30

Note to self: pIC50 recorded for COCCC(=O)c1ccc(N2[C@@H]3CC[C@H]2C[C@@H](NC(=O)c2ccc(C(N)=O)c(NCC4CC4)c2)C3)nc1 was > 6.30
